# measured.target: rat brain membranes
# protocol.details: radioreceptor binding assay
# test.conditions: 1 nM radioligand, 1 h at 23°; ^a = unusually shallow slope; read-out: IC50 for inhibition of stereospecific binding, radioligand 3H-DHM
experimental.endpoint: pIC50
API: returns pIC50 as number; meaning -log10 of concentration in mol/L.

Problem: Supply measured pIC50 of Oc1ccc2c3c1O[C@H]1[C@@H](O)C=C[C@H]4[C@@H](C2)NCC[C@@]341 in your reply.
Result: 8.30

====

# Tested on: mouse vas deferens
# protocol.details: mouse vas deferens bioassay
# Format: cell-based
# test.conditions: Mus musculus; inhibition of electrically stimulated twitch; geometric mean
experimental.endpoint: IC50 (nM)
The response must be a number in nM with no trailing unit.

Problem: Supply measured IC50 of Oc1ccc2c3c1O[C@H]1[C@@H](O)C=C[C@H]4[C@@H](C2)NCC[C@@]341 [Normorphine] in your reply.
Result: 230
